Recorded values, source PubChem BioAssay (NCI).

Test system: MDA-MB-468 breast
Assay comment: NCI tumour cell line growth inhibition, 48 h
Overview of recorded TGI for various molecules
Numbers only; they are read as µM.

- Molecule: "CCSc1oc(-c2ccccc2)nc1[P+](c1ccccc1)(c1ccccc1)c1ccccc1"
  System: "MDA-MB-468 breast"
  Measured attribute: "TGI"
  Unit: "µM"
  Assay result: 0.676

*Q* What does the data say about its TGI? Entry: Cn1nc(C(F)(F)F)c(-c2ccc(Cl)c(C(F)(F)F)c2)c1-c1ccc(OCc2ccc(Cl)cc2)cc1O
*A* 3.65

*Q* What does the data say about its TGI? Entry: CCN1CCN(c2nc(NNC(=O)Cc3ccccc3)nc(N3CCN(C(c4ccccc4)c4ccccc4)CC3)n2)CC1
*A* 4.52

*Q* // TGI lookup, key: COc1ccc(-c2ccc(/C=C/C(=O)NO)cc2)cc1
*A* 2.62

*Q* For the molecule CCCCCCCCCCCCn1c(C)nc2ccccc21 , what TGI is on record?
*A* 19.4

*Q* Item CCN(CC)CCN1C(=O)c2c(c(C)c3c(oc4cc(O)ccc43)c2C)C1=O has what recorded TGI?
*A* 3.01

*Q* TGI for O=C1NC(=O)/C(=C/C=C/c2ccccc2)S1 ?
*A* 56

*Q* # query: TGI of entry COc1ccc(/C=C/c2c(C(=O)/C=C/c3ccc(Cl)cc3)c(C)nc3ccccc23)cc1
*A* 3.54

*Q* Need TGI of COc1ccc(SC2c3cc(OC)c(OC)cc3Oc3nc(N)c(C#N)c(N)c32)cc1 (stereo unspecified) , thanks.
*A* 1.53

*Q* Quick one: TGI of COc1ccc(/C(C)=C(\c2ccc(Cl)cc2)c2ccc(OCCN3CCCC3)cc2)cc1 ?
*A* 8.85

---

System: MDA-MB-468 breast
Assay comment: NCI tumour cell line growth inhibition, 48 h
Measured attribute: GI50

Below: 2 compounds and their reported GI50.
- Compound: "CCCCCCCCCCCCn1c(C)nc2ccccc21"
  GI50: "601 nM"
- Compound: "O=C(/C=C/c1ccc(C(F)(F)F)cc1)c1ccc(Nc2nc(NCCO)nc(NCCO)n2)cc1"
  GI50: "2020 nM"

*Q* Please report the recorded GI50 for CC(C)N=C([Se])NC(=O)c1ccccc1 .
*A* 1720 nM

*Q* Give its GI50 value. Item: Cn1nc(C(F)(F)F)c(-c2ccc(Cl)c(C(F)(F)F)c2)c1-c1ccc(OCc2ccc(Cl)cc2)cc1O
*A* 1340 nM

*Q* Item C/C(=N\NC(N)=O)C(CN1CCCCC1)C(c1ccccc1)c1c(O)c2ccccc2oc1=O (stereo not given) has what recorded GI50?
*A* > 100000 nM

---

Test system: MDA-MB-468 breast
Assay comment: NCI tumour cell line growth inhibition, 48 h; in the data active means GI50 below about 0.43 µM; inactive means the rest
Write down one outcome, taken from active, inactive

Sample answers from the record:
- Structure string: "CC(C)C[C@H](NC(=O)[C@H](CCc1ccccc1)NC(=O)CN1CCOCC1)C(=O)N[C@@H](Cc1ccccc1)C(=O)N[C@@H](CC(C)C)C(=O)[C@@]1(C)CO1"
  Assigned class: "active"
- Structure string: "Cc1ccc(/C(CSc2nnc(-c3c[nH]c4ccccc34)n2-c2ccccc2)=N/O)cc1"
  Assigned class: "inactive"
- Structure string: "CCOC(=O)c1sc(-c2ccc(OS(=O)(=O)c3cccs3)c(C=O)c2)nc1C"
  Assigned class: "inactive"
- Structure string: "N#Cc1c(NC(=O)c2ccccc2)sc2c1CCC(=O)C2"
  Assigned class: "inactive"

Now let's try a different one.
*Q* # outcome recorded in this test, key = CC1(C)N=C(N)N=C(N)N1c1cccc(C#N)c1
*A* inactive
